Measured On: Lysine-specific demethylase 4C (Homo sapiens) (UniProt Q9H3R0)
Sequence (Q9H3R0 1-420 limits assumed): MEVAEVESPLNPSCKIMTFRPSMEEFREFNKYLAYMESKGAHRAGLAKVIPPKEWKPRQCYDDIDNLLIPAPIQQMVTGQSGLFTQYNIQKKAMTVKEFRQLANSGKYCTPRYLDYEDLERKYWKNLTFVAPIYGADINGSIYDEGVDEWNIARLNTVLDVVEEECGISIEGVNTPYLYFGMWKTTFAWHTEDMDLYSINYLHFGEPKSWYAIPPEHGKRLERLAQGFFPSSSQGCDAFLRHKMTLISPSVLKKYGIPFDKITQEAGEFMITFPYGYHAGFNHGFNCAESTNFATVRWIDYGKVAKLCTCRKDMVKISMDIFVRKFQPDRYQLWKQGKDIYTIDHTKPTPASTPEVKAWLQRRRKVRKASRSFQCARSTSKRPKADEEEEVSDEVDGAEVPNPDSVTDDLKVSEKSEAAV
Assay Protocol: inhibitors of GASC-1 histone demethylase, primary screen, biochemical, fluorescence, DELFIA europium (AID 2099);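 further: signal counts dimethyl H3K9 product captured on neutravidin plate; 0% = median of DMSO wells and 100% = 0.3 times that DMSO median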
Condition Parameters: GST-JMJD2C(1-420) H3K9me3 demethylation, at 2.35 µM, stronger effect = higher value
In all, about 330,000 compounds went through this assay and about 230 (0.07%) were called active. The full list was thinned out, with actives kept by preference.
As shown below, each of these compounds has a reported inhibition value.
Give your result in % as a bare value.

Solved cases (8 shown):
                                   compound                               measured_on    property  measured
0  O=C(c1ccc(S(=O)(=O)N2CCCC2)cc1)N1CCN(c2ccccc2F)CC1  Lysine-specific demethylase 4C (Homo sapiens) (UniProt Q9H3R0)  inhibition      5.37
1  COc1ccc(CC(NC(C)=O)C(=O)N2CCN(C(=O)Nc3cccc(Cl)c3)CC2)cc1OC (stereo unspecified)  Lysine-specific demethylase 4C (Homo sapiens) (UniProt Q9H3R0)  inhibition       3.8
2        CCCN(CCC)C(=O)C1c2ccccc2Oc2ccccc21  Lysine-specific demethylase 4C (Homo sapiens) (UniProt Q9H3R0)  inhibition       8.4
3  CCOc1ccc(N(C)Cc2cc(=O)oc3ccc(OC)cc23)cc1  Lysine-specific demethylase 4C (Homo sapiens) (UniProt Q9H3R0)  inhibition     -5.29
4  CCCCn1c(N)c(N(CC)C(=O)/C=C/c2ccco2)c(=O)[nH]c1=O  Lysine-specific demethylase 4C (Homo sapiens) (UniProt Q9H3R0)  inhibition      -4.8
5  N#Cc1c(/N=C/N2CCCC2)oc(-c2ccccc2)c1-c1ccccc1  Lysine-specific demethylase 4C (Homo sapiens) (UniProt Q9H3R0)  inhibition     -7.68
6         O=c1cc(-c2ccccc2)[nH]c2cc(F)ccc12  Lysine-specific demethylase 4C (Homo sapiens) (UniProt Q9H3R0)  inhibition     0.818
7                O=C(CCCOc1ccccc1)NCc1ccco1  Lysine-specific demethylase 4C (Homo sapiens) (UniProt Q9H3R0)  inhibition      8.15

Returns the measured inhibition for the input compound. Input: NS(=O)(=O)c1ccc(CNC(=S)NC(=O)c2ccco2)cc1 2.82

Returns the measured inhibition for the input compound. Input: Cc1nnc(SC(C(=O)c2ccccc2)c2ccccc2)[nH]c1=O (stereo unspecified) -3.86

Returns the measured inhibition for the input compound. Input: Cc1ccccc1-c1cc(C(=O)NCC2CC2)n(CC2CC(c3cccnc3)=NO2)n1 (stereo unspecified) -1.99

The measured values listed here are drawn from PubChem BioAssay AID2099.
